Measurement target: Thioredoxin reductase 1, cytoplasmic (Rattus norvegicus)
Method notes: qHTS Assay for Inhibitors of Mammalian Selenoprotein Thioredoxin Reductase 1 (TrxR1): qHTS; note: nearly all actives have a fitted effect of over 65% in size
Particulars: recombinant rTrxR1, NADPH fluorescence consumption, selenite substrate; series mostly up to 114 µM
The whole screen tested about 390,000 compounds, of which about 4,000 (1%) were called active. Another 4% or so got no clear call; they are omitted. Calls come from the whole dose curve; as a rule, active = well fitted inhibition curve with a large enough effect; inconclusive = small, poorly fitted or top-dose-only effect; inactive = no such curve, though single readings can be large or run the other way. This excerpt belongs to a sample that is enriched for actives.
Your reply should match one of these outcome classes. yes (1) = active, no (0) = inactive

(Q) Outcome? Nc1ccccc1SC(C[N+](=O)[O-])c1ccccc1 (stereo not drawn)
(A) yes (1)

---
(Q) Outcome? Cc1cccc(C(CC(=O)NCC2(c3ccccc3)CCCC2)c2ccccc2)c1O (stereo not drawn)
(A) no (0)

(Q) Outcome? CCOC(=O)/C=C/C(=O)OCC(=O)NC(c1ccccc1)c1ccccc1
(A) yes (1)

(Q) Outcome? COc1cc(OC)cc(C(=O)Nc2ccc(-c3nc4ccccc4o3)c(O)c2)c1
(A) yes (1)

(Q) Outcome? COc1ccc(-c2cc(C(F)(F)F)nc(S(C)(=O)=O)n2)cc1OC
(A) yes (1)

(Q) Outcome? O=C(Cn1c[n+](CC(=O)c2ccc([N+](=O)[O-])cc2)cn1)c1ccc([N+](=O)[O-])cc1
(A) no (0)

(Q) Outcome? Cc1ccccc1OCCC(=O)OCC(=O)NC(C)c1ccccc1 (stereo not drawn)
(A) no (0)

(Q) Outcome? CCc1cccc(NC(=O)c2cc(-c3ccccc3)n[nH]2)c1
(A) no (0)

(Q) Outcome? O=C(N1CCOCC1)N1CCOCC1
(A) no (0)

(Q) Outcome? COc1cccc(NCCC(=O)c2cccc([N+](=O)[O-])c2)c1
(A) yes (1)

(Q) Outcome? COc1ccc(CNC(=O)c2cc3c(=O)[nH]c4ccc(C)cc4c3s2)c(OC)c1
(A) no (0)

(Q) Outcome? N#C/C=C(/c1ccc(F)cc1)N1CCOCC1
(A) no (0)

(Q) Outcome? Cc1cccc(C(=O)O)c1[N+](=O)[O-]
(A) no (0)

(Q) Outcome? Cc1cccc(Oc2c([N+](=O)[O-])c(=O)n(C)c3ccccc23)c1
(A) yes (1)

(Q) Outcome? COc1ccc(-c2cc(C(F)(F)F)nc(SCC(=O)N(C)Cc3ccccc3)n2)cc1OC
(A) no (0)

(Q) Outcome? Cc1ccc2nc(N3CCN(c4cccc(Cl)c4)CC3)c3nnnn3c2c1
(A) no (0)

(Q) Outcome? Cn1c(=O)c(Sc2ccc(Cl)cc2)c(O)c2ccccc21
(A) no (0)

(Q) Outcome? O=S(=O)(c1ccc(Cl)cc1)c1nnn2c1nc(NC1CCCC1)c1sccc12
(A) no (0)

(Q) Outcome? O=C(Cc1ccccc1)Nc1sc2c(c1C(=O)Nc1ccc(Br)cc1)CCC2
(A) no (0)

(Q) Outcome? COc1cc(CNC(=O)c2cc3n(n2)CCCN(Cc2cccc(F)c2)C3=O)cc(OC)c1OC
(A) no (0)

(Q) Outcome? N#C/C(=C/c1ccc(N2CCOCC2)o1)C(=O)N1CCOCC1
(A) yes (1)

(Q) Outcome? CC1=C/C(=N\OS(=O)(=O)c2ccccc2)C=CC1=O
(A) yes (1)

(Q) Outcome? COc1ccc(CCNc2nc(-c3ccc(F)cc3)cc(C(F)(F)F)n2)cc1OC
(A) no (0)

* * *

Measurement target: Thioredoxin reductase 1, cytoplasmic (Rattus norvegicus) (UniProt O89049)
Sequence (O89049 whole entry, looked up): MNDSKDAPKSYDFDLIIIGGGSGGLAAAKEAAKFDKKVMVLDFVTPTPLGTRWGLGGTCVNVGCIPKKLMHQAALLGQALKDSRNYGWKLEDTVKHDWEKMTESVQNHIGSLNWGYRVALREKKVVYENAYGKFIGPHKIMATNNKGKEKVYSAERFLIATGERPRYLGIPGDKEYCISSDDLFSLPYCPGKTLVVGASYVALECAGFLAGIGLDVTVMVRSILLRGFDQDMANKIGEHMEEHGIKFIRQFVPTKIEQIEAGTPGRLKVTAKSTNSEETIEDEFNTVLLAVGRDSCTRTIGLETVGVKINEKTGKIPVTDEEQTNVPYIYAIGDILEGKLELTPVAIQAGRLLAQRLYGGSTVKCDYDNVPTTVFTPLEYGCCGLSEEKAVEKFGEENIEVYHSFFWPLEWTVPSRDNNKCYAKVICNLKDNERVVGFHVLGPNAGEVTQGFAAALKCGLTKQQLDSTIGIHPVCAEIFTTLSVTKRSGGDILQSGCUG
Method notes: qHTS Assay for Inhibitors of Mammalian Selenoprotein Thioredoxin Reductase 1 (TrxR1): qHTS; note: nearly all actives have a fitted effect of over 65% in size
Particulars: recombinant rTrxR1, NADPH fluorescence consumption, selenite substrate; series mostly up to 114 µM
In all, about 390,000 compounds went through this assay and about 4,000 (1%) were called active. Inconclusive results (about 4%) are left out. Calls follow the shape of the dose curve; as a rule, active = well fitted inhibition curve with a large enough effect; inconclusive = small, poorly fitted or top-dose-only effect; inactive = no such curve, though single readings can be large or run the other way. The sample as a whole holds a higher share of actives than the screen did.
Your reply should match one of these outcome classes. active, inactive

Please review the following examples before continuing.
(Q) Outcome? C=Cc1ccc(Cn2c(C(=O)OC)cc3sc(C)cc32)cc1
(A) inactive

(Q) Outcome? COc1ccc(CCNC(=O)Cn2c(=O)n(-c3ccccc3)c(=O)c3c(C)c(C)sc32)cc1OC
(A) inactive

(Q) Outcome? Cc1ccc(C2c3[nH]c4ccccc4c3CCN2C(=O)c2cccc(C)c2)cc1 (configuration not stated)
(A) inactive

(Q) Outcome? CCOC(=O)N1CCc2c(sc3c2c(=O)n(-c2ccc(CC)cc2)c(=O)n3C)C1
(A) inactive

(Q) Outcome? CCOC(=O)c1ccc(NC(=O)c2c(NCc3cccc(OC)c3)sc3c2CCC3)cc1
(A) inactive

(Q) Outcome? Cc1ccccc1CN1CCC(CNC(=O)c2c(C)oc3ncnc(N4CCCCC4)c23)CC1
(A) inactive

(Q) Outcome? CCN(c1ccc(Cl)cc1)S(=O)(=O)c1nnc(NC(=O)c2ccco2)s1
(A) inactive

(Q) Outcome? CC(C)(C)n1ncc2c(=O)n(Cc3ccc(C(=O)c4ccccc4)cc3)cnc21
(A) inactive

---
(Q) Outcome? CCC(=O)Nc1nnc(S(=O)(=O)N(CC(C)C)c2ccccc2)s1
(A) inactive

(Q) Outcome? Cc1ccc(-c2nc(=N)sn2Cc2ccccc2)cc1
(A) inactive

(Q) Outcome? S=c1[nH]c(=S)c2n[nH]nc2[nH]1
(A) active

(Q) Outcome? Cc1cc(C)cc(NC(=O)CSc2nc3nccnc3c(=O)n2CCc2c[nH]c3ccccc23)c1
(A) inactive

(Q) Outcome? COc1ccc(CCNC(=O)c2nn(C)c3c2CSc2ccccc2-3)cc1OC
(A) inactive

(Q) Outcome? O=C(Nc1nc(-c2ccco2)c(-c2ccco2)s1)c1ccco1
(A) active

* * *

Measurement target: Thioredoxin reductase 1, cytoplasmic (Rattus norvegicus) (UniProt O89049)
Method notes: qHTS Assay for Inhibitors of Mammalian Selenoprotein Thioredoxin Reductase 1 (TrxR1): qHTS; note: nearly all actives have a fitted effect of over 65% in size
Particulars: recombinant rTrxR1, NADPH fluorescence consumption, selenite substrate; series mostly up to 114 µM
Out of some 390,000 compounds screened, about 4,000 (1%) were called active. Another 4% or so got no clear call; they are omitted. The call rests on the fitted dose curve; in most records, active means well fitted inhibition curve with a large enough effect; inconclusive means small, poorly fitted or top-dose-only effect; inactive means no such curve, though single readings can be large or run the other way. The sample holds actives, similar compounds and a random draw of the others, so the mix is not that of the screen.
Your reply should match one of these outcome classes. 1 (yes) = active, 0 (no) = inactive

(Q) Outcome? O=C(Nc1ccccc1Cl)N1CCC(CN2CCCC2)CC1
(A) 0 (no)

Attention now turns to another entry.
(Q) Outcome? Cc1ccc(C(=O)NC(=S)Nc2ccc3[nH]c(=O)[nH]c3c2)cc1C
(A) 0 (no)

* * *

Measurement target: Thioredoxin reductase 1, cytoplasmic (Rattus norvegicus)
Method notes: qHTS Assay for Inhibitors of Mammalian Selenoprotein Thioredoxin Reductase 1 (TrxR1): qHTS; note: nearly all actives have a fitted effect of over 65% in size
Particulars: recombinant rTrxR1, NADPH fluorescence consumption, selenite substrate; series mostly up to 114 µM
Among all 390,000 compounds or so, about 4,000 (1%) were called active. Inconclusive results (about 4%) are left out. Calls come from the whole dose curve; as a rule, active = well fitted inhibition curve with a large enough effect; inconclusive = small, poorly fitted or top-dose-only effect; inactive = no such curve, though single readings can be large or run the other way. For the sample, actives were picked, then their nearest neighbours and some compounds at random.
Your reply should match one of these outcome classes. active, inactive

(Q) Outcome? O=C(Cn1c(-c2cccs2)cc2ccccc21)NCCc1ccc(Cl)cc1
(A) inactive

(Q) Outcome? CC(C)(C)OC(=O)N1CCC(c2c(C(=O)NCCc3ccsc3)cnn2-c2ccc(F)cc2F)CC1
(A) inactive

(Q) Outcome? Cc1ccc(Nc2c(-c3ccc(Cl)cc3)nc3sccn23)c(C)c1
(A) inactive

Attention now turns to another entry.
(Q) Outcome? COc1ccccc1NC(=O)/C=C/C(N)=O
(A) active

* * *

Measurement target: Thioredoxin reductase 1, cytoplasmic (Rattus norvegicus) (UniProt O89049)
Method notes: qHTS Assay for Inhibitors of Mammalian Selenoprotein Thioredoxin Reductase 1 (TrxR1): qHTS; note: nearly all actives have a fitted effect of over 65% in size
Particulars: recombinant rTrxR1, NADPH fluorescence consumption, selenite substrate; series mostly up to 114 µM
Among all 390,000 compounds or so, about 4,000 (1%) were called active. Another 4% or so got no clear call; they are omitted. The call rests on the fitted dose curve; in most records, active means well fitted inhibition curve with a large enough effect; inconclusive means small, poorly fitted or top-dose-only effect; inactive means no such curve, though single readings can be large or run the other way. This is one part of a sample in which actives are shown more often than they occur.
Your reply should match one of these outcome classes. active, inactive

Please review the following examples before continuing.
(Q) Outcome? Cc1ccc(-n2ncc3c(N4CCC(C(N)=O)CC4)ncnc32)cc1
(A) inactive

(Q) Outcome? Cc1nnc(SCc2cc(=O)[nH]c(N3CCN(Cc4ccccc4)CC3)n2)s1
(A) inactive

---
(Q) Outcome? CCc1ccc(NC(=O)CCCc2nnc3n(CCCOC)c(=O)c4sccc4n23)cc1
(A) inactive

(Q) Outcome? COC(=O)C(CC(C)C)NS(=O)(=O)c1cc(Br)ccc1Br (centres undefined)
(A) inactive

(Q) Outcome? CC(C)(C)n1nnnc1C(c1ccc(Cl)cc1)N1CCSCC1 (centres undefined)
(A) inactive

(Q) Outcome? COc1ccccc1-c1noc(CSc2nnc(-c3ccccc3)n2-c2ccc(C)c(C)c2)n1
(A) inactive

(Q) Outcome? COc1ccc(OC)c(NC(=O)Cn2c(=O)n(Cc3ccccc3)c(=O)c3ccccc32)c1
(A) inactive
